# credit: ChEMBL document CHEMBL1143784

Test: Clearance in mouse liver microsomes at 0.5 uM
Type: ADME, Microsome
Measured Quantity: microsomal CLint at 0.5 µM (µL/min/mg)
The response must be a number in µL/min/mg with no trailing unit.

Examples with answers:
[[record]]
compound = "CC1(C)[C@H]2CC=C(C[N+]3(C)CCC(NC(=O)Nc4cc(F)cc(C(F)(F)F)c4)CC3)[C@@H]1C2.[I-] (some centres undefined)"
measured_quantity = "microsomal CLint at 0.5 µM"
measured_result = 66

[[record]]
compound = "CC1(C)[C@H]2CC=C(CN3CCC(NC(=O)Nc4cccc(OC5CCOC5)c4)CC3)[C@@H]1C2 (some centres undefined)"
measured_quantity = "microsomal CLint at 0.5 µM"
measured_result = 287

[[record]]
compound = "CC1(C)[C@H]2CC=C(CN3CCC(NC(=O)Nc4cncc(-c5cccs5)c4)CC3)[C@@H]1C2"
measured_quantity = "microsomal CLint at 0.5 µM"
measured_result = 324


As a next step, examine the compound that follows.
QUERY: Param item = CC1(C)[C@H]2CC=C(CN3CCC(NC(=O)Nc4cc(F)cc(OC5CCOC5)c4)CC3)[C@@H]1C2 (some centres undefined) ; retrieve measured microsomal CLint at 0.5 µM.
RESULT: 97
